tested on: Fibroblast; experiment: Multiplex assay against human fibroblast; type: toxicity, cell-based; conditions: 48 h, 1 µM, compound concentration 1 uM, replicate 1
Would you mind labelling by Population Mitochondria Different-Phenotype (%)? At or over 6% is MET, under is NOT MET.

**Query** Is Population Mitochondria Different-Phenotype (%) for O=C(Nc1ccc(-n2nc(-c3cccnc3)cc2C(F)(F)F)cn1)c1ccc(-c2ccccc2)c(F)c1 [BI 2049] at or above 6%?
**Result** NOT MET

**Query** Is Population Mitochondria Different-Phenotype (%) for O=C(Nc1ccc(-c2ccnc(Nc3ccc(N4CCOCC4)cc3)n2)cc1)[C@@H]1CCCN1 at or above 6%?
**Result** NOT MET

**Query** Is Population Mitochondria Different-Phenotype (%) for O=C1N/C(=N/c2ccccc2F)S/C1=C\c1ccc(C(=O)O)cc1 at or above 6%?
**Result** NOT MET

**Query** Is Population Mitochondria Different-Phenotype (%) for CNc1cc(Oc2cc(C(=O)Nc3cc(N4CCN(C)CC4)cc(C(F)(F)F)c3)ccc2C)ncn1 at or above 6%?
**Result** MET

**Query** Is Population Mitochondria Different-Phenotype (%) for CCCn1c(=O)c2[nH]c(-c3cnn(Cc4cccc(C(F)(F)F)c4)c3)nc2n(CC)c1=O [GS 6201] at or above 6%?
**Result** MET

**Query** Is Population Mitochondria Different-Phenotype (%) for CCN1CCN(Cc2ccc(Nc3ncc(F)c(-c4cc(F)c5nc(C)n(C(C)C)c5c4)n3)nc2)CC1.CS(=O)(=O)O at or above 6%?
**Result** MET

**Query** Is Population Mitochondria Different-Phenotype (%) for C=C1/C(=C\C=C2/CCC[C@]3(C)[C@@H]([C@H](C)/C=C/[C@H](C)C(C)C)CC[C@@H]23)C[C@@H](O)C[C@@H]1O [DOXERCALCIFEROL] at or above 6%?
**Result** NOT MET

**Query** Is Population Mitochondria Different-Phenotype (%) for CN(C)C(=O)C(CCN1CCC(O)(c2ccc(Cl)cc2)CC1)(c1ccccc1)c1ccccc1.Cl [LOPERAMIDE HYDROCHLORIDE] at or above 6%?
**Result** MET

**Query** Is Population Mitochondria Different-Phenotype (%) for S=C(NCCCc1c[nH]cn1)NCCCN(Cc1ccc(Cl)c(Cl)c1)c1ccc(Br)cn1 at or above 6%?
**Result** NOT MET

**Query** Is Population Mitochondria Different-Phenotype (%) for Cc1cn(-c2cc(NC(=O)c3ccc(C)c(Nc4nccc(-c5cccnc5)n4)c3)cc(C(F)(F)F)c2)cn1 [NILOTINIB] at or above 6%?
**Result** MET

**Query** Is Population Mitochondria Different-Phenotype (%) for Cl.Oc1ccc2c3c1O[C@H]1c4[nH]c5c(c4C[C@@]4(O)[C@@H](C2)N(CC2CC2)CC[C@]314)C[C@@]1(O)[C@H]2Cc3ccc(O)c4c3[C@@]1(CCN2CC1CC1)[C@H]5O4 at or above 6%?
**Result** NOT MET

**Query** Is Population Mitochondria Different-Phenotype (%) for CN1C2CCC1CC(OC(c1ccc(F)cc1)c1ccc(F)cc1)C2.Cl (stereo unspecified) at or above 6%?
**Result** NOT MET

**Query** Is Population Mitochondria Different-Phenotype (%) for CN1CCC(=C2c3ccccc3CC(=O)c3sccc32)CC1.O=C(O)/C=C/C(=O)O [KETOTIFEN FUMARATE] at or above 6%?
**Result** NOT MET

**Query** Is Population Mitochondria Different-Phenotype (%) for CCc1cccc(CC)c1NC(=O)c1nn(C)c2c1CCc1cnc(Nc3ccc(C(=O)NC4CCN(C)CC4)cc3OC(F)(F)F)nc1-2 at or above 6%?
**Result** MET

**Query** Is Population Mitochondria Different-Phenotype (%) for Cl.O=c1c2cccn2c2ccccc2n1CCCN1CCC(c2ccc(Cl)cc2)CC1 at or above 6%?
**Result** NOT MET
